Data provenance: paper PMC6138237

Molecular target: 5-LO (Homo sapiens)
Sequence (P09917 1-674): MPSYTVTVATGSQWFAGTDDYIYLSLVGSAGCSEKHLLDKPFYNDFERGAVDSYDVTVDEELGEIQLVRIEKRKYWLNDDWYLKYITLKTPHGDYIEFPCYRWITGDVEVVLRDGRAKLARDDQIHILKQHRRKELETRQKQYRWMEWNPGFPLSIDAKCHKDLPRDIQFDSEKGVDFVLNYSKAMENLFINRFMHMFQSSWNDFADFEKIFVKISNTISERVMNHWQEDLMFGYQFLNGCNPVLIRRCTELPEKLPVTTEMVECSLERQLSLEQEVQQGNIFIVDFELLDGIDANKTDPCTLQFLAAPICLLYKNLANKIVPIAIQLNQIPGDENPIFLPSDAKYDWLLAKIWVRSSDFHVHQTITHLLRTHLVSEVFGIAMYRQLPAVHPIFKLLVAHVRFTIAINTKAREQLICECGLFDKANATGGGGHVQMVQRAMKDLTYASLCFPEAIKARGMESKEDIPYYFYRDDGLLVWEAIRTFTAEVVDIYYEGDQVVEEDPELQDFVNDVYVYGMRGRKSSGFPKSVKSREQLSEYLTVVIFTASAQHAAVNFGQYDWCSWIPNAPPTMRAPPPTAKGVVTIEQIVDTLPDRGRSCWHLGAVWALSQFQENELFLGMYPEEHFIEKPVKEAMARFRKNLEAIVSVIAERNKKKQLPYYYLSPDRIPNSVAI
Assay: 5-LO product formation in neutrophil homogenates
Details: IC50, neutrophil homogenates with 1 mM dithiothreitol
readout.label: IC50 (nM)

{"columns": ["molecule", "readout.label", "observed.result"],
 "data": [
  ["CC1(C)CCC2=C(O1)c1ccccc1C(=O)C2=O [β-Lapachone]", "IC50", 85.5]
]}

---

inhibition at 5 µM listing for selected compounds.
Target: 5-LO (Homo sapiens)
Sequence (P09917 1-674): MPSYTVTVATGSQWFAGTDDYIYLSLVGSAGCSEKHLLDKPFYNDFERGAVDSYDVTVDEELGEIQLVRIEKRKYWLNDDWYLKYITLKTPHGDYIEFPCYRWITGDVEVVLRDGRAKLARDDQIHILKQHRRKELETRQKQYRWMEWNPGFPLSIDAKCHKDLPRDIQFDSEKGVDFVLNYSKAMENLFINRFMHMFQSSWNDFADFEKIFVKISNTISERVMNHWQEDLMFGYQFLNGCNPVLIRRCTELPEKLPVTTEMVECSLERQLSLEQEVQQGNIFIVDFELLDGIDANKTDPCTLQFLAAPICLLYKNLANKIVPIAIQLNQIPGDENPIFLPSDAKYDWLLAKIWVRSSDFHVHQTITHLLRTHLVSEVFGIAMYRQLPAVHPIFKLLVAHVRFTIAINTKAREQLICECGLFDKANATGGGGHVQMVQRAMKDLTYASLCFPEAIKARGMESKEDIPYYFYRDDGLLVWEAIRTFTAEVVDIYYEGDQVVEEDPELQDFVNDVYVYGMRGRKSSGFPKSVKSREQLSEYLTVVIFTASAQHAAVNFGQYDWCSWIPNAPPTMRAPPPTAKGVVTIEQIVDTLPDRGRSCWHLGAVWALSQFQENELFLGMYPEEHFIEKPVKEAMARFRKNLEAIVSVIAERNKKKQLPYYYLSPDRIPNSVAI
Assay: 5-LO inhibition assay, Cerep (Method A, indirect fluorogenic readout, Rhodamine 123)
Type: biochemical
Details: 5-LO; 5 µM; read-out: % inhibition of control values, 1st measure

{"columns": ["compound", "inhibition at 5 µM, %"],
 "data": [
  ["CC1(C)OC2=C(C(=O)C(=O)c3ccccc32)C1Nc1ccc(Cl)cc1 (centres unmarked)", 33.1],
  ["CC1(C)CCC2=C(O1)c1ccccc1C(=O)C2=O", 103],
  ["CC1(C)OC2=C(CC1O)C(=O)C(=O)c1ccccc12 (centres unmarked)", 47.2],
  ["CC1(C)OC2=C(C(=O)C(=O)c3ccccc32)C1Nc1ccccc1 (centres unmarked)", 42.2],
  ["CC1(C)OC2=C(C(=O)C(=O)c3ccccc32)C1O (centres unmarked)", 77.4],
  ["CC(=O)OCC1OC(OCc2cn(C3C4=C(OC3(C)C)c3ccccc3C(=O)C4=O)nn2)C(OC(C)=O)C(OC(C)=O)C1OC(C)=O (centres unmarked)", 68.4],
  ["CC(=O)OCC1OC(OCc2cn(CC3C4=C(OC3(C)C)c3ccccc3C(=O)C4=O)nn2)C(OC(C)=O)C(OC(C)=O)C1OC(C)=O (centres unmarked)", 73.8],
  ["CC1(C)OC2=C(C(=O)C(=O)c3ccccc32)C1Nc1ccc(C(=O)/C=C/c2ccccc2)cc1 (centres unmarked)", 51.5]
]}

---

biological target: 5-LO (Homo sapiens, UniProt P09917); assay type: biochemical; settings: IC50 (30 μg mL^–1, PC), competition with phosphatidylcholine 30 μg/mL; n = 3
readout.label: IC50 (µM)

{"columns": ["smiles", "target.under.test", "readout.unit", "observed.result"],
 "data": [
  ["CC1(C)CCC2=C(O1)c1ccccc1C(=O)C2=O", "5-LO (Homo sapiens, UniProt P09917)", "µM", 1]
]}

---

molecular target: UniProt:P09917; test: 5-LO inhibition assay, Cerep (Method A, indirect fluorogenic readout, Rhodamine 123); assay type: biochemical; conditions: IC50, 5-LO, indirect fluorescence detection (Cerep); n = 2
pIC50: −log10 of the molar value.
readout.label: pIC50

{"columns": ["smiles", "observed.result"],
 "data": [
  ["CC1(C)CCC2=C(O1)c1ccccc1C(=O)C2=O", 5.68]
]}

---

biological target: 5-LO (Homo sapiens, UniProt P09917); assay type: biochemical; settings: cell-free, absence of DTT; n = 3; read-out: IC50 (without DTT)
pIC50: −log10 of the molar value.
readout.label: pIC50

{"columns": ["smiles", "observed.result"],
 "data": [
  ["CC1(C)CCC2=C(O1)c1ccccc1C(=O)C2=O", "< 4.52"]
]}

---

target: EP4 (Homo sapiens); assay: EP4 functional agonist assay, Cerep (cAMP, HTRF)
Sequence (P35408 whole entry): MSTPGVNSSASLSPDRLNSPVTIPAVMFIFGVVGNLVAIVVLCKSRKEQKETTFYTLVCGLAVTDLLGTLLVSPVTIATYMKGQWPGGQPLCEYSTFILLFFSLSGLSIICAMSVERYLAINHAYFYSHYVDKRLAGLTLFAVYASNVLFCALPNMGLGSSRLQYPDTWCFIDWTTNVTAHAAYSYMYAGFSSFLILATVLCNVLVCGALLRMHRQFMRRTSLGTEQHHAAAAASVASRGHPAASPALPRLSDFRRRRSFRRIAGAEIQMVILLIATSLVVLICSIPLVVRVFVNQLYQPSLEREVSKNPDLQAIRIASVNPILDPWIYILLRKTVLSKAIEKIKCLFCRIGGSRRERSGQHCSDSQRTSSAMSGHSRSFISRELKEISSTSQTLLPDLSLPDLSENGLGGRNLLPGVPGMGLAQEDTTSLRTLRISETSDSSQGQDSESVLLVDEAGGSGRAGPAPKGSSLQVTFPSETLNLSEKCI

{"columns": ["smiles", "IC50"],
 "data": [
  ["CC1(C)CCC2=C(O1)c1ccccc1C(=O)C2=O", "~100 µM"]
]}

---

biological target: UniProt:P09917; assay: 5-LO product formation in intact human neutrophils stimulated with A23187 plus arachidonic acid; conditions: IC50 (5-LO), intact human neutrophils, without DTT; n = 3
pIC50: −log10 of the molar value.
readout.label: pIC50

{"columns": ["smiles", "target.under.test", "readout.label", "observed.result"],
 "data": [
  ["CC1(C)CCC2=C(O1)c1ccccc1C(=O)C2=O", "UniProt:P09917", "pIC50", 5.07]
]}

---

target: 5-LO (Homo sapiens, UniProt P09917); assay type: biochemical; conditions: cell-free, plus 1 mM DTT, 0.01% Triton X100; n = 3; read-out: IC50 (with Triton X100)

{"columns": ["compound", "readout.unit", "IC50"],
 "data": [
  ["CC1(C)CCC2=C(O1)c1ccccc1C(=O)C2=O [β-Lapachone]", "nM", 90]
]}

---

target: UniProtKB P43116; experiment: EP2 functional antagonist assay, Cerep (PGE2 100 nM, cAMP)
Sequence (P43116 whole entry): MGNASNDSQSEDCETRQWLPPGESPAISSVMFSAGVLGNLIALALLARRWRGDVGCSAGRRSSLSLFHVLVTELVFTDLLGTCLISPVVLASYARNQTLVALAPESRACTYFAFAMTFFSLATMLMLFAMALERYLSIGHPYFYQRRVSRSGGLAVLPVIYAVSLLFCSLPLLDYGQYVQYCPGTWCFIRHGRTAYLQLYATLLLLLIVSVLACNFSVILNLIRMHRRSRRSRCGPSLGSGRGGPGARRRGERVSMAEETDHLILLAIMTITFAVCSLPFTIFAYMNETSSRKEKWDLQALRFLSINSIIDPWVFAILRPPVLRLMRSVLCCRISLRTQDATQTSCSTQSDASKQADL
readout.label: IC50

{"columns": ["smiles", "observed.result"],
 "data": [
  ["CC1(C)CCC2=C(O1)c1ccccc1C(=O)C2=O", "~100 µM"]
]}

---

target: 5-LO (Homo sapiens, UniProt P09917); type: biochemical; conditions: IC50 (with DTT), cell-free, reducing conditions, 1 mM dithiothreitol (DTT); n = 3

{"columns": ["smiles", "IC50 / nM"],
 "data": [
  ["CC1(C)CCC2=C(O1)c1ccccc1C(=O)C2=O", 240]
]}

---

Biological target: 5-LO (Homo sapiens)
Sequence (P09917 1-674): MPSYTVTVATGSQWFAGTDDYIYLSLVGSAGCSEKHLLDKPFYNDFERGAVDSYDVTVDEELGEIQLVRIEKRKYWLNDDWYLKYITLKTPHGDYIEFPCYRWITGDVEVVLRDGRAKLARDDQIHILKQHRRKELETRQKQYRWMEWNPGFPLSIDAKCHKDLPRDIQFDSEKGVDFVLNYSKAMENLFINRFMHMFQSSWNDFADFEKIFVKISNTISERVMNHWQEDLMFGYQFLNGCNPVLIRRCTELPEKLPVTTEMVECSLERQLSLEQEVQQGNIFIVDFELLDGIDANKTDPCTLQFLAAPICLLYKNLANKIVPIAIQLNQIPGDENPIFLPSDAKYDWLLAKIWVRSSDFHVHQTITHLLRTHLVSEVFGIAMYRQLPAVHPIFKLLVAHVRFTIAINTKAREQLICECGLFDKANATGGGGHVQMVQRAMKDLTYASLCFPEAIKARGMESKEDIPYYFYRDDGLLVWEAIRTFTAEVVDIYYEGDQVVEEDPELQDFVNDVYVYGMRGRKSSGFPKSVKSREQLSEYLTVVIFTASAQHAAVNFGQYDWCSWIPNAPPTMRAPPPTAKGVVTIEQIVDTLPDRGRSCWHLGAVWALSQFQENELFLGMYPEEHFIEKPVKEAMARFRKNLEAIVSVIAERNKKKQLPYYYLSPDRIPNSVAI
Experiment: 5-LO product formation in neutrophil homogenates
Conditions: IC50 (without DTT), neutrophil homogenates without DTT; n = 3
readout.label: IC50 (µM)

{"columns": ["smiles", "target.under.test", "observed.result"],
 "data": [
  ["CC1(C)CCC2=C(O1)c1ccccc1C(=O)C2=O", "5-LO (Homo sapiens)", 5.2]
]}
